Assay: chemical genetic growth profiling, strain panel (AID 1159580);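 further: tested at 20 µM; growth read once vehicle control cultures reached saturation at 30 °C; 1 = growth at the plate median or of vehicle wells; lower values mean less growth of the strain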
Settings: S. cerevisiae deletion strains, growth OD, locus YEL037C, strain rad23, hits give low values
The whole screen tested about 5,500 compounds, of which about 2,000 (36%) were called active. Roughly 18% stayed inconclusive and do not appear here. Some of the results follow.
Answer each item with its documented normalized growth.
Give bare numbers.

Illustrative cases are given below, each with its answer.
compound	readout.label	recorded.result
O=C(O)c1cc(=O)c2cccc(O)c2[nH]1	normalized growth	1.01
CCc1cccc2c3c([nH]c12)C(CC)(CC(=O)O)OCC3 (stereo not given)	normalized growth	0.968
COc1cc(/C=C/C(=O)N2CCC=CC2=O)cc(OC)c1OC	normalized growth	0.998
COc1cc(O)cc(OC)c1OC	normalized growth	0.988

Here are 4 compounds. What values of normalized growth were reported for them?
1. O=C(O)c1cc(=O)c2c(Cl)cc(Cl)cc2[nH]1
2. CO[C@H]1C[C@H](O[C@H]2[C@H](C)[C@@H](OC3O[C@H](C)C[C@H](N(C)C)[C@H]3OC(C)=O)[C@@H](C)C[C@]3(CO3)C(=O)[C@H](C)[C@@H](OC(C)=O)[C@@H](C)[C@@H](C)OC(=O)[C@@H]2C)O[C@@H](C)[C@@H]1OC(C)=O (stereo not given in full)
3. Cc1c(NC(=O)c2cccnc2)c(=O)n(-c2ccccc2)n1C
4. O=C(O)[C@H](O)[C@@](O)(Cc1ccc(O)cc1)C(=O)O

Solution:
1.01
0.998
0.994
1

Kindly give each listed record's normalized growth.
1. O=C(NC1CCCCC1)NC1CCCCC1
2. CCN(CC)CCNC(=O)c1cc(Cl)c(N)cc1OC

Solution:
[0.977, 0.976]

###

Experiment: chemical genetic growth profiling, strain panel (AID 1159580)
Conditions: S. cerevisiae deletion strains, growth OD, locus YOR329C, strain SCD5, hits give low values
The campaign covered roughly 5,500 compounds. About 2,000 (36%) were called active. Another 18% or so got no clear call; they are omitted. This is one part of the list.
Provide the recorded normalized growth for the entries that follow.
Give bare numbers.

Some solved entries appear below for comparison.
In [3]: df
Out[3]:
                           smiles_structure      readout_label  recorded_result
0  N#C/C(=N/Nc1cccc(C(F)(F)F)c1)C(=O)c1csc(-c2cccnc2)n1  normalized growth            0.966
1  CC(C)(C)C(=O)c1sc2sc(C(=O)C(C)(C)C)c(N)c2c1N  normalized growth            0.991
2  O=C(Nc1cc2c(s1)-c1cc(Cl)ccc1SC2)Oc1ccccc1  normalized growth                1
3  O=C(c1cc2c(s1)-c1ccccc1CC2)N1CCN(Cc2ccccc2)CC1  normalized growth             1.01
4           S=C(Nc1ccc(Cl)cc1)Nc1ccc(Cl)cc1  normalized growth            0.923
5         FC(F)(F)c1cc(-c2ccc(Cl)cc2)n[nH]1  normalized growth            0.912
6  Cc1ccc(OCc2n[nH]c(=S)n2Cc2ccccc2)c2c1CCC2  normalized growth            0.988
7        Clc1ccc(N/N=C\c2sccc2Oc2ccccc2)cc1  normalized growth            0.978

For every record below, what is its normalized growth?
1. O=C(NNC(=S)Nc1ccc(Cl)cc1)c1ncc(C(F)(F)F)cc1Cl
2. Cn1nc(-c2ccccc2)c(O)c(N=Nc2ccccc2)c1=O

Solution:
0.99
0.974

###

Consider the following compounds; for each one, report its normalized growth.
Assay: chemical genetic growth profiling, strain panel (AID 1159580)
Settings: S. cerevisiae deletion strains, growth OD, locus YOR265W, strain rbl2, hits give low values
Screen size: about 5,500 compounds; about 2,000 (36%) were called active. Inconclusive results (about 18%) are left out. Some of the results follow.
Give bare numbers.

Solved entries:
smiles.structure	normalized growth
Cc1cc(=O)n(-c2ccccc2)n1C	0.994
CN[C@@H]1[C@@H](O[C@H]2O[C@H](CO)[C@@H](N)[C@H](O)[C@H]2O)O[C@H]2C[C@@H](N)[C@H](O[C@H]3[C@H](O)[C@@H](O)[C@H](N)C[C@@H]3N)O[C@@H]2[C@@H]1O	1.01

Here are 3 compounds. What values of normalized growth were reported for them?
1. CN(C)CCc1c[nH]c2ccc(C[C@H]3COC(=O)N3)cc12
2. NC[C@H]1O[C@H](O[C@H]2[C@H](O)[C@@H](O[C@H]3O[C@H](CO)[C@@H](O)[C@H](N)[C@H]3O)[C@H](N)C[C@@H]2N)[C@H](N)C[C@@H]1O
3. CN(C)CCc1c[nH]c2ccc(CS(=O)(=O)N3CCCC3)cc12

Solution:
1. 1.01
2. 1.03
3. 0.99

###

Assay: chemical genetic growth profiling, strain panel (AID 1159580);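 further: tested at 20 µM; growth read once vehicle control cultures reached saturation at 30 °C; 1 = growth at the plate median or of vehicle wells; lower values mean less growth of the strain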
Conditions: S. cerevisiae deletion strains, growth OD, locus YOR265W, strain rbl2, hits give low values
Hit rate of the full screen: of about 5,500 compounds, about 2,000 (36%) were called active. Inconclusive results (about 18%) are left out. The list shows a part of the results.
Quick rule for you: normalized growth under 0.9 gets True, anything else gets False.

For orientation, consider the following solved cases.
molecule	assigned.label
O=C(OC[C@H]1O[C@H](OC(=O)c2cc(O)c(O)c(OC(=O)c3cc(O)c(O)c(O)c3)c2)[C@H](OC(=O)c2cc(O)c(O)c(OC(=O)c3cc(O)c(O)c(O)c3)c2)[C@@H](OC(=O)c2cc(O)c(O)c(OC(=O)c3cc(O)c(O)c(O)c3)c2)[C@@H]1OC(=O)c1cc(O)c(O)c(OC(=O)c2cc(O)c(O)c(O)c2)c1)c1cc(O)c(O)c(OC(=O)c2cc(O)c(O)c(O)c2)c1	True
CC(=O)O[C@@H]1CC[C@]2(C)C3CC[C@]4(C)C(=O)CCC4C3CC[C@H]2C1 (stereo partly drawn)	False
OCc1c[nH]c2ccccc12	False
CC(=O)OC[C@H]1O[C@@H](Oc2cc(OC(C)=O)c3c(=O)cc(-c4ccc(OC(C)=O)cc4)oc3c2)[C@H](OC(C)=O)[C@@H](OC(C)=O)[C@@H]1OC(C)=O	False
Cc1cc(C(C)(C)C)cc(C)c1CC1=NCCN1	False
NCCc1cc(O)c(O)cc1O	False

Next up:
Exercise: normalized growth under 0.9? Item: `c1ccc2c(Cc3c[nH]c4ccccc34)c[nH]c2c1`
Solution: True

###

Experiment: chemical genetic growth profiling, strain panel (AID 1159580);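 further: tested at 20 µM; growth read once vehicle control cultures reached saturation at 30 °C; 1 = growth at the plate median or of vehicle wells; lower values mean less growth of the strain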
Details: S. cerevisiae deletion strains, growth OD, locus YOR083W, strain WHI5, hits give low values
The campaign covered roughly 5,500 compounds. About 2,000 (36%) were called active. Another 18% or so got no clear call; they are omitted. The list shows a part of the results.
Hi there, I'd appreciate the recorded normalized growth for every entry that follows.
One number for each entry.

molecule	recorded.result
CCCCc1nc(Cl)c(CO)n1Cc1ccc(-c2ccccc2-c2nn[nH]n2)cc1	0.981

Hello, I would appreciate it if you could give normalized growth for each entry below.
1. COc1cccc(OC)c1C(=O)N[C@@H]1C(=O)N2[C@@H]1SC(C)(C)[C@@H]2C(=O)O
2. CN[C@@H]1[C@@H](O[C@H]2O[C@H](CO)[C@@H](N)[C@H](O)[C@H]2O)O[C@H]2C[C@@H](N)[C@H](O[C@H]3[C@H](O)[C@@H](O)[C@H](N)C[C@@H]3N)O[C@@H]2[C@@H]1O
3. CN(C)CCc1c[nH]c2ccc(CS(=O)(=O)N3CCCC3)cc12
4. COc1cc2c(cc1OC)[C@@]13CCN4CC5=CCOC6CC(=O)N2C1[C@H]6[C@H]5C[C@H]43 (some centres undefined)
5. c1ccc2c(Cc3c[nH]c4ccccc34)c[nH]c2c1
6. Cc1cc(C(C)(C)C)c(O)c(C)c1CC1=NCCN1
7. CN(C)CCc1c[nH]c2ccc(C[C@H]3COC(=O)N3)cc12

Solution:
[0.95, 1.01, 1, 0.993, 0.419, 1.03, 1]

###

Experiment: chemical genetic growth profiling, strain panel (AID 1159580);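 further: tested at 20 µM; growth read once vehicle control cultures reached saturation at 30 °C; 1 = growth at the plate median or of vehicle wells; lower values mean less growth of the strain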
Conditions: S. cerevisiae deletion strains, growth OD, locus YNL183C, strain NPR1, hits give low values
Screen size: about 5,500 compounds; about 2,000 (36%) were called active. About 18% were inconclusive and are not listed. The list shows a part of the results.
Record form. Attribute: normalized growth. Fill in for each entry.
Answers are plain numbers.

Completed entries (count: 5):
In [3]: df
Out[3]:
                                 compound      readout_label  recorded_result
0                 COc1ccc(C(=O)O)c(O)c1OC  normalized growth            0.938
1  CC(=O)N[C@@H](Cc1c[nH]c2ccccc12)C(=O)O  normalized growth            0.886
2       CCOc1ccc(C(=O)c2ccc(O)c(O)c2O)cc1  normalized growth            0.852
3                      NCCc1cc(O)c(O)cc1O  normalized growth            0.956
4       COc1cc(NS(=O)(=O)c2ccc(N)cc2)ncn1  normalized growth            0.933

Batch request: normalized growth for each of the following compounds.
1. CCOc1ccc(NC(C)=O)cc1
2. CC(=O)OCC(=O)[C@@]12OC3(CCCC3)O[C@@H]1CC1C3CCC4=CC(=O)C=C[C@]4(C)[C@@]3(F)[C@@H](O)C[C@@]12C (some centres not stated)
3. NCCc1c[nH]c2ccccc12
4. CCOc1ccc(C(=O)c2ccc(OC)c(O)c2O)cc1
5. O=C(O)c1cc(=O)c2cccc(O)c2[nH]1
6. CCOc1ccc(C(=O)c2cc(O)c(OC)c(OC)c2O)cc1

Solution:
1: 0.995; 2: 0.954; 3: 0.97; 4: 0.866; 5: 0.917; 6: 0.906

Exercise: Fill in: normalized growth of `c1ccc2c(Cc3c[nH]c4ccccc34)c[nH]c2c1` is ___
Solution: 0.593
